Parameter viability, T/C: see the listing below.
- Tested on: MDA-MB-231 complex spheroid viability
- procedure details: Anticancer human tumor MDA-MB-231/ATCC cell line growth inhibition;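 further: drug exposure lasted 7 days starting on day 3 of spheroid growth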
- applied conditions: second compound 0.316 µM; first compound 0.001 µM; active compounds read low
Quick reminder: number only, in %, skip the unit.

Worked cases, viability, T/C given:
compound	viability, T/C (%)
CC[C@@]1(O)C(=O)OCc2c1cc1n(c2=O)Cc2cc3c(CN(C)C)c(O)ccc3nc2-1 + NC1CCC(NC2CC2c2ccccc2)CC1	66.3
CC(C)CC(NC(=O)CNC(=O)c1cc(Cl)ccc1Cl)B1OC(=O)CC(CC(=O)O)(C(=O)O)O1 (stereo not drawn) + NC1CC1c1ccc(-c2cccc(O)c2)cc1	73.3
CC[C@@]1(O)C(=O)OCc2c1cc1n(c2=O)Cc2cc3c(CN(C)C)c(O)ccc3nc2-1 + NC1CC1c1ccc(-c2cccc(O)c2)cc1	48.1
Cn1ncnc1C1c2n[nH]c(=O)c3cc(F)cc(c23)NC1c1ccc(F)cc1 (stereo not drawn) + NC1CCC(NC2CC2c2ccccc2)CC1	95.6
CC(C)CC(NC(=O)C(Cc1ccccc1)NC(=O)c1cnccn1)B(O)O (stereo not drawn) + NC1CCC(NC2CC2c2ccccc2)CC1	60.7
CC(C)CC(NC(=O)C(Cc1ccccc1)NC(=O)c1cnccn1)B(O)O (stereo not drawn) + NC1CC1c1ccc(-c2cccc(O)c2)cc1	0.28

stdin: # query: viability, T/C of entry Cn1ncnc1C1c2n[nH]c(=O)c3cc(F)cc(c23)NC1c1ccc(F)cc1 (stereo not drawn) + NC1CC1c1ccc(-c2cccc(O)c2)cc1
stdout: 61

stdin: What measured viability, T/C goes with CC(C)CC(NC(=O)CNC(=O)c1cc(Cl)ccc1Cl)B1OC(=O)CC(CC(=O)O)(C(=O)O)O1 (stereo not drawn) + NC1CCC(NC2CC2c2ccccc2)CC1 ?
stdout: 107
